# assay-notes: chemical genetic growth profiling, strain panel (AID 1159580);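 note: tested at 20 µM; growth read once vehicle control cultures reached saturation at 30 °C; 1 = growth at the plate median or of vehicle wells; lower values mean less growth of the strain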
# experimental-setup: S. cerevisiae deletion strains, growth OD, locus YDR150W, strain NUM1
Screen size: about 5,500 compounds; about 2,000 (36%) were called active. Roughly 18% stayed inconclusive and do not appear here. Cut-off read from the data, not from the text of the source: active = normalized growth mostly below about 0.91 (no sharp cut-off); inconclusive = no clear call, values can overlap the other calls; inactive = mostly above about 0.92. This is one part of the list.
Outcome field: choose from active, inactive

Use these answered entries as a reference point.
compound	assigned-label
Nc1c2ccccc2nc2ccccc12 (tested in a mixture with another compound)	active
CC1(C)CC[C@]2(C(=O)O)CC[C@]3(C)C(=CCC4[C@@]5(C)CC[C@@H](O)C(C)(C)C5CC[C@]43C)C2C1 (stereo not given in full)	inactive
NNc1nncc2ccccc12	inactive
CC(=O)OC1CC(OC(C)=O)C2(C)C(CC(OC(C)=O)C3(C)C4=CC(=O)OC(=O)C4(C)CCC32)C1(C)C (stereo not given)	inactive

Field: next compound
Query :: What did the test return for COc1ccc2c3c([nH]c2c1)C(C)=NCC3 ?
Result :: inactive

---

# assay-notes: chemical genetic growth profiling, strain panel (AID 1159580);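 note: tested at 20 µM; growth read once vehicle control cultures reached saturation at 30 °C; 1 = growth at the plate median or of vehicle wells; lower values mean less growth of the strain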
# experimental-setup: S. cerevisiae deletion strains, growth OD, locus YNL222W, strain SSU72, hits give low values
About 2,000 (36%) of roughly 5,500 compounds were called active. About 18% were inconclusive and are not listed. Some of the results follow.
Listing of recorded normalized growth by entry.
Please reply with the value in numeric form only.

Observe how each entry below is paired with its result.
molecule	normalized growth
O=[N+]([O-])c1ccc(S(=O)(=O)c2ccccc2)nc1S(=O)(=O)c1ccccc1	0.915
CC(C)Cc1ccc(C(C)C(=O)Nc2nn(C)c3ccccc23)cc1 (stereo unspecified)	0.99
CC(C)(C)C(=O)N(Cc1cccnc1)Cc1ccc(Cl)cc1Cl	0.993
O=C(c1ccc(Cl)cc1)N(Cc1ccccc1)Cc1cccnc1	0.989
O=C(Nc1ccccc1Sc1ccc([N+](=O)[O-])cc1[N+](=O)[O-])C(Cl)(Cl)Cl	0.976

Query :: Data request, read-out normalized growth, for COC(=O)c1cnn(-c2c(Cl)cccc2Cl)c1C=C(C#N)C#N
Result :: 0.966

Query :: Data request, read-out normalized growth, for O=S(=O)(NC(=S)Nc1ccc(Cl)c(Cl)c1)c1ccccc1
Result :: 0.995

Query :: Data request, read-out normalized growth, for O=S(=O)(c1ccc(Cl)cc1)N(Cc1cccnc1)Cc1ccc(Cl)cc1Cl
Result :: 0.961

Query :: Data request, read-out normalized growth, for O=C(NCCc1ccncc1)c1ccc(Cl)c(Cl)c1
Result :: 0.992

Query :: Data request, read-out normalized growth, for O=C(NCCNc1ncc(C(F)(F)F)cc1Cl)C(F)(F)Sc1ccccc1
Result :: 0.979

Query :: Data request, read-out normalized growth, for Cc1nc(-c2cccnc2)nc(NCc2ccccc2)c1Cl
Result :: 0.942

---

Listing of recorded normalized growth by entry.
# assay-notes: chemical genetic growth profiling, strain panel (AID 1159580);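 note: tested at 20 µM; growth read once vehicle control cultures reached saturation at 30 °C; 1 = growth at the plate median or of vehicle wells; lower values mean less growth of the strain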
# experimental-setup: S. cerevisiae deletion strains, growth OD, locus YJL134W, strain LCB3, hits give low values
The whole screen tested about 5,500 compounds, of which about 2,000 (36%) were called active. Inconclusive results (about 18%) are left out. Some of the results follow.
Please reply with the value in numeric form only.

compound	normalized growth
C[C@@H]1CC[C@H]2[C@@H](C)C(=O)O[C@@H]3O[C@@]4(C)CC[C@@H]1[C@]32OO4	0.927
NNC(=O)c1ccncc1	1.01
CNC(=O)O/N=C\C(C)(C)SC	1
CC(C)(Oc1ccc(CCNC(=O)c2ccc(Cl)cc2)cc1)C(=O)O	1.01

Query :: Data request, read-out normalized growth, for CC(C)=CCCC1(C)C=Cc2c(O)c3c(c(CC=C(C)C)c2O1)OC12C(=CCCC1C(C)(C)O[C@@]2(C/C=C(\C)C(=O)O)C(=O)O)C3=O (stereo not given in full)
Result :: 0.929

Query :: Data request, read-out normalized growth, for COC(=O)/C(C)=C\CC12OC(C)(C)C3CC(C=C4C(=O)c5c(O)c6c(c(CCC(C)(C)Cl)c5OC431)OC1(C)CCC(=C(C)C)C6C1)C2=O (stereo not given)
Result :: 1.03

Query :: Data request, read-out normalized growth, for CC(C)=CCCC1(C)C=Cc2c(O)c3c(c(CC=C(C)C)c2O1)OC12C(=CC4CC1C(C)(C)OC2(C/C=C(/C)C(=O)O)C4=O)C3=O (stereo not given)
Result :: 0.982

Query :: Data request, read-out normalized growth, for Fc1ccc(C(c2ccccc2)(c2ccccc2F)n2ccnc2)cc1 (stereo not given)
Result :: 0.0651

Query :: Data request, read-out normalized growth, for CC(=O)/C=C\[C@@H]1[C@@]2(C)CCCC(C)(C)C2CC[C@@]1(C)O (stereo not given in full)
Result :: 0.969
